# protocol details: Plasma clearance in rat at 3 mg/kg, iv
# Assay type: ADME, organism-based
readout type: clearance (mL/min/kg)
Report the value in mL/min/kg with no unit label.

Form field: reported clearance of CC(=O)Nc1ccc(-c2ccc(NC[C@@H]3CC34CCN(CC3CCOCC3)CC4)nn2)cc1
257

====

# protocol details: Ratio of AUC (0.25 to last) in rat brain to plasma at 3 mg/kg, ip
# Assay type: ADME, organism-based
# experimental setup: read-out: Ratio AUC
readout type: Kp
Answer using only a numeral; do not append any unit.

Form field: reported Kp of CC(=O)Nc1ccc(-c2ccc(NC[C@@H]3CC34CCN(CC3CCOCC3)CC4)nn2)cc1
0.23
